The compounds listed here are annotated with their melting point.

Study these solved cases before continuing.
>>> readout_value("N#CCc1ccccc1CCc1ccc(Br)cc1")
"59 to 60.5 °C"
>>> readout_value("COCC1(O)CCN(c2ccc(N3C[C@H](CNC(C)=O)OC3=O)cc2)CC1")
"152 to 154 °C"
>>> readout_value("CN(C(=O)c1cccc(C(=C2CC3CCC(C2)N3C)c2ccccc2)c1)c1cccc(F)c1")
"122 to 125 °C"

Qu. Give its melting point value. Item: [N-]=[N+]=NCc1ccc2nc[nH]c2c1
Ans. 110 to 114 °C

Qu. Give its melting point value. Item: CCCCCCCCCCCCc1ccc2nc3c(c(Cl)c2c1)CCCC3
Ans. 36 to 38 °C

Qu. Give its melting point value. Item: CCOCc1nc2c(N)nc3ccccc3c2n1N(C)C
Ans. 213 to 215 °C

Qu. Give its melting point value. Item: CC1SC(=O)NN=C1c1ccc2c(c1)C(=Cc1cccs1)C(=O)N2 (stereo not given)
Ans. 287 °C

* * *

observable: melting point

Study these solved cases before continuing.
>>> readout_value("COc1ccccc1C1NC(=O)C(C)S1 (stereo not given)")
"187 to 188 °C"
>>> readout_value("Cc1nc2c(N)nc3ccccc3c2n1CCOCCS(C)(=O)=O")
"214 to 217 °C"
>>> readout_value("CC(C)CC(=O)Nc1cccc(-c2ccnc3c(-c4cccc(C=O)c4)cnn23)c1")
"163 to 165 °C"
>>> readout_value("CC(=O)N1CCC(N(C)S(C)(=O)=O)CC1")
"132 °C"

Next up:
Qu. Give its melting point value. Item: O=C(c1ccc(F)cc1C(F)(F)F)N1Cc2cccn2Cc2ccccc21
Ans. 154 to 155 °C

* * *

observable: melting point

Study these solved cases before continuing.
>>> readout_value("OCC1OC(n2cnc3c(NCC(c4ccccc4)c4ccc(Cl)cc4)ncnc32)C(O)C1O (stereo not given)")
"89 to 95 °C"
>>> readout_value("CCCn1c(=O)c(C(=O)OCC)c(O)c2ccc(C)nc21")
"128 to 130 °C"
>>> readout_value("O=CCCc1cn(-c2cccnc2)c2ccccc12")
"44 to 45 °C"

Qu. Give its melting point value. Item: CS(=O)(=O)Nc1ccc(C(=O)O)c(Cl)c1
Ans. 256 to 258 °C

Qu. Give its melting point value. Item: CCOC(=O)C1=C(C)NC(C)=C(C(=O)OCC)C1c1csc2ccc([N+](=O)[O-])cc12
Ans. 255 to 259 °C

Qu. Give its melting point value. Item: CCN1c2ncc(CCc3ccncc3)cc2C(=O)N(C)c2ccc(F)nc21
Ans. 109 to 111 °C

Qu. Give its melting point value. Item: c1cn(Cc2ccc3[nH]c(-n4ccnc4)nc3c2)cn1
Ans. 226 °C

Qu. Give its melting point value. Item: CCCCCC1OCc2cc(C#N)ccc2O1 (stereo not given)
Ans. 40.5 to 41 °C

Qu. Give its melting point value. Item: COC1CC2(C)C(CCC3C4CC(C)C(C(C)=O)C4(C)CC(=O)C32)CC1O (stereo not given)
Ans. 180 to 182 °C

Qu. Give its melting point value. Item: CCN(Cc1ccc(Cl)nc1)C(=NC)C(=Cc1ccco1)[N+](=O)[O-]
Ans. 155 to 156 °C
